tested on: fibrin- and LPS-induced microglia activation; assay: cells; assay type: cell-based, rat; conditions: quadrant by fibrin and LPS inhibition in HTS of 1907 compounds
Structures can show the parent of a compound that is named as a salt.
Measured Endpoint: Quadrant (FIG. 5b)

>>> experimental_result("CCN(CC)C(=O)c1cccnc1 [Nikethamide]")
"Q4"
>>> experimental_result("CN1C(=O)CC(C)(c2ccccc2)C1=O (stereo not drawn) [Methsuximide]")
"Q4"
>>> experimental_result("CCCCCC(=O)O[C@]1(C(C)=O)CC[C@H]2[C@@H]3CCC4=CC(=O)CC[C@]4(C)[C@H]3CC[C@@]21C [Hydroxyprogesterone Caproate]")
"Q4"
>>> experimental_result("c1ccc2[nH]c(-c3cscn3)nc2c1 [Thiabendazole, reference compound]")
"Q2"
>>> experimental_result("CC1(C)O[C@@H]2C[C@H]3[C@@H]4CCC5=CC(=O)CC[C@]5(C)[C@@]4(F)[C@@H](O)C[C@]3(C)[C@]2(C(=O)CCl)O1 [Halcinonide]")
"Q2"
>>> experimental_result("CN1CCOC(c2ccccc2)c2ccccc2C1 (stereo not drawn)")
"Q4"
>>> experimental_result("c1ccc2c(c1)OCC(C1=NCCN1)O2 (stereo not drawn) [Idazoxan hydrochloride, reference compound]")
"Q3"
>>> experimental_result("C[C@]12C=CC(=O)C=C1CC[C@@H]1[C@@H]2[C@@H](O)C[C@@]2(C)[C@H]1CC[C@]2(O)C(=O)CO [Prednisolone, reference compound]")
"Q2"
>>> experimental_result("CN1CCc2cc3c(cc2C1O)OCO3 (stereo not drawn) [Hydrastinine Hydrochloride]")
"Q4"
>>> experimental_result("O=C(NC(=O)c1c(F)cccc1F)Nc1cc(Cl)c(OC(F)(F)C(F)C(F)(F)F)cc1Cl (stereo not drawn)")
"Q4"
>>> experimental_result("Nc1nc(=O)[nH]cc1F")
"Q4"
>>> experimental_result("COC(=O)C[C@](O)(CCCC(C)(C)O)C(=O)O[C@@H]1C(OC)=C[C@]23CCCN2CCc2cc4c(cc2[C@H]13)OCO4")
"Q2"
>>> experimental_result("CC[N+](C)(CC)CCOC(=O)C(O)(c1ccccc1)C1CCCCC1 (stereo not drawn)")
"Q4"
>>> experimental_result("CCC(=O)O[C@H](CC(=O)O)C[N+](C)(C)C [Levocarnitine Propionate Hydrochloride]")
"Q4"
>>> experimental_result("CCC(=O)OCC(=O)[C@@]1(OC(=O)CC)[C@H](C)C[C@H]2[C@H]3[C@H]([C@@H](O)C[C@@]21C)[C@@]1(C)C=CC(=O)C=C1C[C@H]3Cl [Alclometazone dipropionate, reference compound]")
"Q2"
>>> experimental_result("NC(=O)N/N=C/c1ccc([N+](=O)[O-])o1")
"Q4"
>>> experimental_result("Nc1ccc(O)c(C(=O)O)c1")
"Q4"
>>> experimental_result("C[C@](N)(Cc1ccc(O)c(O)c1)C(=O)O")
"Q4"
>>> experimental_result("O=C(NCC1CCCCN1)c1cc(OCC(F)(F)F)ccc1OCC(F)(F)F (stereo not drawn) [Flecainide]")
"Q4"
>>> experimental_result("CCN1CCC[C@H]1CNC(=O)c1cc(S(N)(=O)=O)ccc1OC [Levosulpiride]")
"Q4"
>>> experimental_result("CCCCCCCCCCCCCCCC[N+](C)(C)C")
"Q2"
>>> experimental_result("Cc1cccc(C)c1NC(=O)CN1CCCC1=O")
"Q4"
>>> experimental_result("O=C1OC(CN2CCOCC2)CN1/N=C/c1ccc([N+](=O)[O-])o1 (stereo not drawn)")
"Q4"
>>> experimental_result("CC(=O)/N=c1/sc(S(N)(=O)=O)nn1C [Methazolamide]")
"Q4"
>>> experimental_result("C[CH2][Hg][S]c1ccccc1C(=O)O")
"Q2"
>>> experimental_result("CCN(CC)CCNC(=O)COc1ccc(OC)cc1 [Mefexamide, Mefexamide Hydrochloride]")
"Q4"
>>> experimental_result("Cc1ncc([N+](=O)[O-])n1CCO")
"Q4"
>>> experimental_result("CCCCCN(C)CCC(O)(P(=O)(O)O)P(=O)(O)O [Ibandronate]")
"Q4"
>>> experimental_result("CC[C@H](C)C(=O)O[C@H]1CCC=C2C=C[C@H](C)[C@H](CC[C@@H]3C[C@@H](O)CC(=O)O3)[C@H]21")
"Q2"
>>> experimental_result("CCCCC(CC)CN1CN(CC(CC)CCCC)CC(C)(N)C1 (stereo not drawn)")
"Q4"
>>> experimental_result("CCCCC(=O)O[C@]1(C(=O)CO)[C@@H](C)C[C@H]2[C@@H]3CCC4=CC(=O)C=C[C@]4(C)[C@@]3(F)[C@@H](O)C[C@@]21C [Betamethasone valerate, reference compound]")
"Q2"
>>> experimental_result("FC(F)(F)COCC(F)(F)F")
"Q4"
>>> experimental_result("CCOC(=O)O[C@]1(C(=O)COC(=O)CC)CC[C@H]2[C@@H]3CCC4=CC(=O)C=C[C@]4(C)[C@H]3[C@@H](O)C[C@@]21C [Prednicarbate, reference compound]")
"Q2"
